measured-target: T1, SIRP-α human v2 (human, UniProt P78324 31-149, limits assumed)
T1 construct: Soluble analyte in SPR
T1 sequence (P78324 other isoform, or with tags, fused parts or gaps limits assumed): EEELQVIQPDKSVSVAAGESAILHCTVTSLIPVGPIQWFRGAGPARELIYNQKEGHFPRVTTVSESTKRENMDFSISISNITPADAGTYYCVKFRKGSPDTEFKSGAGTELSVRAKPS
assay-overview: SPR, antibody on GLC chip, SIRP as analyte
Rule for this label: yes (1) means Kd is less than 0.1 nM; no (0) means Kd is at least 0.1 nM.

- binder: "Anti-SIRP-α antibody 136, light chain Mut_I2T, heavy chain Mut (antibody, V domains shown, Whole antibody) VH: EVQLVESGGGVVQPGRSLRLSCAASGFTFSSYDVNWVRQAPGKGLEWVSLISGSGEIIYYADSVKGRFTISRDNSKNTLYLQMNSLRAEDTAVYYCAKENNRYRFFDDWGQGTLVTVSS VL: ETVLTQSPGTLSLSPGERATLSCRASQSVYTYLAWYQQKPGQAPRLLIYGASSRATGIPDRFSGSGSGTEFTLTISSLQSEDFAVYYCQQYYDRPPLTFGGGTKVEIK"
  group: "no (0)"
- binder: "Anti-SIRP-α antibody 119, light chain wt, heavy chain Mut (antibody, V domains shown, Whole antibody; Heavy chain mut = D1E, E43K, L112Q, M34V) VH: EVQLLESGGGVVQPGGSLRLSCAASGFSFSNFAVTWVRQAPGKGLEWVSTIGSGDTYYADSVKGRFTISRDNSKNTLYLQMNSLRAEDTAVYYCAKDSTVSWSGDFFDYWGQGTLVTVSS VL: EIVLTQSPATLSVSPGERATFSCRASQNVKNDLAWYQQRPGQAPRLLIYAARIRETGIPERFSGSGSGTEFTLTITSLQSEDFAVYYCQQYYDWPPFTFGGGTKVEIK"
  group: "yes (1)"
- binder: "Anti-SIRP-α antibody 119, light chain wt, heavy chain wt (antibody, V domains shown, Whole antibody (FreeStyle 293-FS, protein A purified)) VH: EVQLLESGGGVVQPGGSLRLSCAASGFSFSNFAMTWVRQAPGEGLEWVSTIGSGDTYYADSVKGRFTISRDNSKNTLYLQMNSLRAEDTAVYYCAKDSTVSWSGDFFDYWGLGTLVTVSS VL: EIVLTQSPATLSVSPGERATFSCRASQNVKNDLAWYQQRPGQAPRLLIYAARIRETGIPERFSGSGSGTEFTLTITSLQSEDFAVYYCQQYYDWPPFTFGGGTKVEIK"
  group: "yes (1)"
- binder: "Anti-SIRP-α antibody 136, light chain wt, heavy chain Mut (antibody, V domains shown, Whole antibody; Heavy chain mut = D1E, R13Q, E16R, M34V, E43K, L111Q) VH: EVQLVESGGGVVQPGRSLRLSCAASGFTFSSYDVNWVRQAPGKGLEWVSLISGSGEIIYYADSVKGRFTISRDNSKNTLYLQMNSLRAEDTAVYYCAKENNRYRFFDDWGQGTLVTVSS VL: ETVLTQSPGTLTLSPGERATLTCRASQSVYTYLAWYQEKPGQAPRLLIYGASSRATGIPDRFSGSGSGTEFTLTISSLQSEDFAVYYCQQYYDRPPLTFGGGTKVEIK"
  group: "no (0)"
- binder: "Anti-SIRP-α antibody 135, light chain wt, heavy chain wt (antibody, V domains shown, Whole antibody) VH: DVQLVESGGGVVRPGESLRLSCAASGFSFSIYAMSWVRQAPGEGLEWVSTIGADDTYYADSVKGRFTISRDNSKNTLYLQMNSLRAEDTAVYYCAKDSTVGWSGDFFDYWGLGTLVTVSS VL: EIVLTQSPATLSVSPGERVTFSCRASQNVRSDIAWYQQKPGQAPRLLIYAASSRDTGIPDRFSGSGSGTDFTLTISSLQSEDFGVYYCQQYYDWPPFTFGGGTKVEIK"
  group: "yes (1)"

Identify whether the binder Hum9/AB21_HC_Mutall (antibody, V domains shown, Whole antibody) VH: EVQLVESGGGVVQPGGSLRLSCAASGFTFSSNAMSWVRQAPGKGLEWVAGISAGGSDTYYPASVKGRFTISRDNSKNTLYLQMNSLRAEDTAVYYCARETWNHLFDYWGQGTLVTVSS VL: SYELTQPPSVSVSPGQTARITCSGGAYSSYYYAWYQQKPGQAPVLVIYSDDKRPSGIPERFSGSSSGTTVTLTISGVQAEDEADYYCGGYDQSSYTNPFGGGTKLTVL records Kd below 0.1 nM. no (0)

Dear colleague, could you confirm whether Kd of Anti-SIRP-α antibody 135, light chain wt, heavy chain Mut (antibody, V domains shown, Whole antibody; Heavy chain mut = D1E, R13Q, E16G, M34V, E43K, L112Q) VH: EVQLVESGGGVVQPGGSLRLSCAASGFSFSIYAVSWVRQAPGKGLEWVSTIGADDTYYADSVKGRFTISRDNSKNTLYLQMNSLRAEDTAVYYCAKDSTVGWSGDFFDYWGQGTLVTVSS VL: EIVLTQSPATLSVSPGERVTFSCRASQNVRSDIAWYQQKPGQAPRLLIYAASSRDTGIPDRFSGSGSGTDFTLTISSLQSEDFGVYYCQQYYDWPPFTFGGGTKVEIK falls below 0.1 nM? Thanks. yes (1)

Does this binder meet the criterion Kd < 0.1 nM? Anti-SIRP-α antibody 119, light chain Mut, heavy chain wt (antibody, V domains shown, Whole antibody; Light chain mut = F21L, R39K, E60A, T76S) VH: EVQLLESGGGVVQPGGSLRLSCAASGFSFSNFAMTWVRQAPGEGLEWVSTIGSGDTYYADSVKGRFTISRDNSKNTLYLQMNSLRAEDTAVYYCAKDSTVSWSGDFFDYWGLGTLVTVSS VL: EIVLTQSPATLSVSPGERATLSCRASQNVKNDLAWYQQKPGQAPRLLIYAARIRETGIPARFSGSGSGTEFTLTISSLQSEDFAVYYCQQYYDWPPFTFGGGTKVEIK yes (1)

Strictly below 0.1 nM: is that where Kd of Anti-SIRP-α antibody 136, light chain Mut_Q38E, heavy chain Mut (antibody, V domains shown, Whole antibody) VH: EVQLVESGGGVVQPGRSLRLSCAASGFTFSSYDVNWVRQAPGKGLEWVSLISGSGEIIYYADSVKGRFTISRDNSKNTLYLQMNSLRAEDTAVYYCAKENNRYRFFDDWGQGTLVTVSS VL: EIVLTQSPGTLSLSPGERATLSCRASQSVYTYLAWYQEKPGQAPRLLIYGASSRATGIPDRFSGSGSGTEFTLTISSLQSEDFAVYYCQQYYDRPPLTFGGGTKVEIK sits? no (0)

Is 0.1 nM strictly greater than the binder's reported Kd? binder: Anti-SIRP-α antibody 136, light chain Mut_S12T, heavy chain Mut (antibody, V domains shown, Whole antibody) VH: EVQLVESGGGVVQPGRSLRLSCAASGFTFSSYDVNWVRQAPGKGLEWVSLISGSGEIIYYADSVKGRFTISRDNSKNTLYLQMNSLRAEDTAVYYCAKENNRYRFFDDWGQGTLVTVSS VL: EIVLTQSPGTLTLSPGERATLSCRASQSVYTYLAWYQQKPGQAPRLLIYGASSRATGIPDRFSGSGSGTEFTLTISSLQSEDFAVYYCQQYYDRPPLTFGGGTKVEIK no (0)
